The values you see were collected from paper PMC4724694.

# tested-system: 5-LOX (Homo sapiens, UniProt P09917)
# Sequence (P09917 whole entry): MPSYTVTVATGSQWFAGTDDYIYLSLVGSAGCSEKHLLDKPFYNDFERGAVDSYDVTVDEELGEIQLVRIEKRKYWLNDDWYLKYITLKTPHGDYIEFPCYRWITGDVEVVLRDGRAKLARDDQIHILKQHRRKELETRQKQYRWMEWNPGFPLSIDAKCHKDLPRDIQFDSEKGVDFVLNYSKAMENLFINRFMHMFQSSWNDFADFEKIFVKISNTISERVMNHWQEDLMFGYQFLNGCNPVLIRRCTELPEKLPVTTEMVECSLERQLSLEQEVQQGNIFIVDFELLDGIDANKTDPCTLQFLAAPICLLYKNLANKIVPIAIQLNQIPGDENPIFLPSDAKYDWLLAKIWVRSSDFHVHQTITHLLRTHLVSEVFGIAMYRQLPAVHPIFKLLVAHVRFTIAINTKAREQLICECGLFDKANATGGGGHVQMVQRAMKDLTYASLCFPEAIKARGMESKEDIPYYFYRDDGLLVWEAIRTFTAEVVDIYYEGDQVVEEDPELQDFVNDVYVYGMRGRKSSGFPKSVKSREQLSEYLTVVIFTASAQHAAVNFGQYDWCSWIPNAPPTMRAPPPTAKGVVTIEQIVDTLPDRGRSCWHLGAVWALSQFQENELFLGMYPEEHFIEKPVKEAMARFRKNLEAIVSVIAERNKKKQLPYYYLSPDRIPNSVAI
# assay-text: Cell-free 5-LOX enzymatic assay
# Format: biochemical
measured-quantity: pIC50
Quick note: pIC50 values are minus log10 of concentrations in mol/L.

Examples from the recorded data:
CC(C)(C)c1cc(NC(=O)c2cc(-c3ccc4c(c3)OCO4)n(-c3ccc(S(N)(=O)=O)cc3)n2)cc(C(C)(C)C)c1O [4e] :: 6.88
CC(C)(C)c1cc(NC(=O)c2cc(-c3ccc(Br)s3)n(-c3ccc(S(N)(=O)=O)cc3)n2)cc(C(C)(C)C)c1O [4k] :: 6.80
CC(C)(C)c1cc(NC(=O)c2cc(-c3ccc4c(c3)OCO4)n(-c3ccc(S(C)(=O)=O)cc3)n2)cc(C(C)(C)C)c1O [5e] :: 6.77

For the molecule shown here, COc1ccc(-c2cc(C(=O)Nc3cc(C(C)(C)C)c(O)c(C(C)(C)C)c3)nn2-c2ccc(S(N)(=O)=O)cc2)cc1 [4c] , give the reported pIC50.
6.87

----------
# tested-system: 5-LOX (Rattus norvegicus)
# Sequence (P12527 1-673): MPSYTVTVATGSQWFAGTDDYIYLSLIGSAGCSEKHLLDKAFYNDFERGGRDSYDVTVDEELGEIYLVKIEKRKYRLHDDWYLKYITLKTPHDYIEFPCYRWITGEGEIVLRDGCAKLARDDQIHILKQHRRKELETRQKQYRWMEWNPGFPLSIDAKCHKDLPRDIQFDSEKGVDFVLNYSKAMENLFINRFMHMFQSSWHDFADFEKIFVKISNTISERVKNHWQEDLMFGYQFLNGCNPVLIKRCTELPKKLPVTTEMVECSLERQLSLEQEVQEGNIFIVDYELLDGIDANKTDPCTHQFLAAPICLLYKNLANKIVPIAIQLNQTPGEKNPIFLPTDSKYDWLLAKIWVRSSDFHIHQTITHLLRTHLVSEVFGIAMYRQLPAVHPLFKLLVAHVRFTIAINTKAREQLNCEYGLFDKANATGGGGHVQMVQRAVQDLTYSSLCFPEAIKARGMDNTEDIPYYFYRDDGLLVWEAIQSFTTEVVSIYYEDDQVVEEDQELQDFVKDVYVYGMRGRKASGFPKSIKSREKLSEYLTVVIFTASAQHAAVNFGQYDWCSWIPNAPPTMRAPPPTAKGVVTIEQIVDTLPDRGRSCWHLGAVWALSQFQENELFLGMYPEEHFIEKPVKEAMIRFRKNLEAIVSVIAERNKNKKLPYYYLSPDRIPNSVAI
# assay-text: Inhibition of 5-LOX product synthesis
# Format: cell-based
# experimental-context: PMNL, read-out: Inhibition at 5 μmol/L (%)
measured-quantity: inhibition at 5 µM (%)
Give just the numeric value; % need not be written.

Answered examples (2):
CC(C)(C)c1cc(NC(=O)c2cc(-c3ccc4c(c3)OCO4)n(-c3ccc(S(C)(=O)=O)cc3)n2)cc(C(C)(C)C)c1O :: 79.3
CC(C)(C)c1cc(NC(=O)c2cc(-c3ccc(Br)s3)n(-c3ccc(S(N)(=O)=O)cc3)n2)cc(C(C)(C)C)c1O :: 74.5

Suppose we examine the compound `CC(C)(C)c1cc(NC(=O)c2cc(-c3ccccc3)n(-c3ccc(S(N)(=O)=O)cc3)n2)cc(C(C)(C)C)c1O` ; what inhibition at 5 µM value has been reported?
55.7

Same lookup for `Cc1ccc(-c2cc(C(=O)Nc3cc(C(C)(C)C)c(O)c(C(C)(C)C)c3)nn2-c2ccc(S(C)(=O)=O)cc2)cc1` , please.
62.8

Repeat with `Cc1ccc(-c2cc(C(=O)Nc3cc(C(C)(C)C)c(O)c(C(C)(C)C)c3)nn2-c2ccc(S(N)(=O)=O)cc2)cc1`
65.7

Record: `CC(C)(C)c1cc(NC(=O)c2cc(-c3ccccc3)n(-c3ccc(F)cc3)n2)cc(C(C)(C)C)c1O`
56.8

What about `CC(C)(C)c1cc(NC(=O)c2cc(-c3ccc4c(c3)OCCO4)n(-c3ccc(S(C)(=O)=O)cc3)n2)cc(C(C)(C)C)c1O` ?
70.3

----------
# tested-system: 5-LOX (Rattus norvegicus)
# assay-text: Inhibition of 5-LOX product synthesis
# Format: cell-based
# experimental-context: read-out: IC50 PMNL; rat peritoneal polymorphonuclear leukocytes
measured-quantity: IC50 (nM)
Numbers only; they are read as nM.

# input compound: `CC(C)(C)c1cc(NC(=O)c2cc(-c3ccc(C(F)(F)F)cc3)n(-c3ccc(S(C)(=O)=O)cc3)n2)cc(C(C)(C)C)c1O` ; wanted: its IC50
800

----------
# tested-system: 5-LOX (Homo sapiens)
# assay-text: Inhibition of 5-LOX product synthesis
# Type: cell-based
# experimental-context: read-out: IC50 HWB; human whole blood
measured-quantity: pIC50
FYI, pIC50 means -log10 of a concentration in mol per litre.

What does the record list as pIC50 for CC(C)(C)c1cc(NC(=O)c2cc(-c3ccc(C(F)(F)F)cc3)n(-c3ccc(S(C)(=O)=O)cc3)n2)cc(C(C)(C)C)c1O [5i] ?
5.95

----------
Overview of reported pIC50 across a group of compounds:
# tested-system: 5-LOX (Rattus norvegicus)
# Sequence (P12527 1-673): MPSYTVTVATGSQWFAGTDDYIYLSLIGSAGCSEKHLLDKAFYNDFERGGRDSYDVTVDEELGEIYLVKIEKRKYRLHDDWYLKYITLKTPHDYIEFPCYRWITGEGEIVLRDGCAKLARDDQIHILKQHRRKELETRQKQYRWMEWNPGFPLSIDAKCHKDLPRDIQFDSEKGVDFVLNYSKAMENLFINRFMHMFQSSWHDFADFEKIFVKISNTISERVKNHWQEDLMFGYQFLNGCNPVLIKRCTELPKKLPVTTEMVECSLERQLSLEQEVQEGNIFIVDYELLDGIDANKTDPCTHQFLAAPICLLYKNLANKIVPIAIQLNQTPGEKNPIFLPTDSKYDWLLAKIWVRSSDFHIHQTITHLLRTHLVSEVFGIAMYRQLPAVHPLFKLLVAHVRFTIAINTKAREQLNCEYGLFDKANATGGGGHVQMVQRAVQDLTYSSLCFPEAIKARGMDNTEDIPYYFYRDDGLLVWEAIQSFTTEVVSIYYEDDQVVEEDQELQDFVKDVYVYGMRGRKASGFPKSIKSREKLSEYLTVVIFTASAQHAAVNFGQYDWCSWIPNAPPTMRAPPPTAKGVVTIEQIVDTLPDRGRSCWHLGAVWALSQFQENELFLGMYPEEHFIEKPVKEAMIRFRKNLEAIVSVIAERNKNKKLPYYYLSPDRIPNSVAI
# assay-text: Inhibition of 5-LOX product synthesis
# Assay type: cell-based
# experimental-context: IC50 PMNL, rat peritoneal polymorphonuclear leukocytes
Quick note: pIC50 values are minus log10 of concentrations in mol/L.

Solved cases (7 shown):
Cc1ccc(-c2cc(C(=O)Nc3cc(C(C)(C)C)c(O)c(C(C)(C)C)c3)nn2-c2ccc(F)cc2)cc1 [6b] :: 6.09
CC(C)(C)c1cc(NC(=O)c2cc(-c3ccc4c(c3)OCO4)n(-c3ccc(S(N)(=O)=O)cc3)n2)cc(C(C)(C)C)c1O [4e] :: 6.16
CC(C)(C)c1cc(NC(=O)c2cc(-c3ccc4ccccc4c3)n(-c3ccc(S(N)(=O)=O)cc3)n2)cc(C(C)(C)C)c1O [4g] :: 6.12
CC(C)(C)c1cc(NC(=O)c2cc(-c3ccc4c(c3)OCO4)n(-c3ccc(S(C)(=O)=O)cc3)n2)cc(C(C)(C)C)c1O [5e] :: 6.19
COc1ccc(-c2cc(C(=O)Nc3cc(C(C)(C)C)c(O)c(C(C)(C)C)c3)nn2-c2ccc(S(N)(=O)=O)cc2)cc1 [4c] :: 6.35
CC(C)(C)c1cc(NC(=O)c2cc(-c3ccc(Br)s3)n(-c3ccc(S(N)(=O)=O)cc3)n2)cc(C(C)(C)C)c1O [4k] :: 6.05
CC(C)(C)c1cc(NC(=O)c2cc(-c3ccc4c(c3)OCCO4)n(-c3ccc(S(C)(=O)=O)cc3)n2)cc(C(C)(C)C)c1O [5f] :: 6.09

Shifting focus to the compound that follows.
Please report the recorded pIC50 for CC(C)(C)c1cc(NC(=O)c2cc(C3CCCCC3)n(-c3ccc(S(N)(=O)=O)cc3)n2)cc(C(C)(C)C)c1O [4j] .
5.97

----------
# tested-system: 5-LOX (Rattus norvegicus)
# assay-text: Inhibition of 5-LOX product synthesis
# Assay type: cell-based
# experimental-context: PMNL, read-out: Inhibition at 5 μmol/L (%)
measured-quantity: inhibition at 5 µM (%)
Field: numeric (%). Do not append units.

Consider the following illustrative entries.
CC(C)Cc1ccc(-c2cc(C(=O)Nc3cc(C(C)(C)C)c(O)c(C(C)(C)C)c3)nn2-c2ccc(S(C)(=O)=O)cc2)cc1 :: 60.2
Cc1ccc(-c2cc(C(=O)Nc3cc(C(C)(C)C)c(O)c(C(C)(C)C)c3)nn2-c2ccc(F)cc2)cc1 :: 83.7
COc1ccc(-c2cc(C(=O)Nc3cc(C(C)(C)C)c(O)c(C(C)(C)C)c3)nn2-c2ccc(S(C)(=O)=O)cc2)cc1 :: 35.6
COc1ccc(-c2cc(C(=O)Nc3cc(C(C)(C)C)c(O)c(C(C)(C)C)c3)nn2-c2ccc(S(N)(=O)=O)cc2)cc1 :: 74.9
CC(C)(C)c1cc(NC(=O)c2cc(-c3ccc4c(c3)OCO4)n(-c3ccc(S(N)(=O)=O)cc3)n2)cc(C(C)(C)C)c1O :: 90.1
CC(C)Cc1ccc(-c2cc(C(=O)Nc3cc(C(C)(C)C)c(O)c(C(C)(C)C)c3)nn2-c2ccc(S(N)(=O)=O)cc2)cc1 :: 59
CC(C)(C)c1cc(NC(=O)c2cc(-c3ccc4ccccc4c3)n(-c3ccc(S(N)(=O)=O)cc3)n2)cc(C(C)(C)C)c1O :: 66.1
CC(C)(C)c1cc(NC(=O)c2cc(-c3ccccc3)n(-c3ccc(S(C)(=O)=O)cc3)n2)cc(C(C)(C)C)c1O :: 41.9

Consider the record given below.
What does the data say about its inhibition at 5 µM? Entry: `CC(C)(C)c1cc(NC(=O)c2cc(-c3ccc4ccccc4c3)n(-c3ccc(S(C)(=O)=O)cc3)n2)cc(C(C)(C)C)c1O`
51.7
